Target: SARS-CoV-2 Main Protease (SARS-CoV-2)
Assignment: determine reported IC50 for the given compounds.
Answers are plain numbers, in µM.

compound="CS(=O)(=O)Nc1ccc2cncc(NC(=O)C3CNC(=O)c4ccc(Cl)cc43)c2c1 (stereo not drawn)" result_value=0.195
compound="CC(C)(C)c1ccc(N(C(=O)c2ccon2)C(C(=O)NCCc2cccc(F)c2)c2cccnc2)cc1 (stereo not drawn)" result_value=4.26
compound=O=C(Cc1cc(Cl)cc(N2CCN(c3nsc4ccccc34)CC2)c1)Nc1cncc2ccccc12 result_value=3.34

From here, focus on the item given below.
Query: Annotate the compound `O=C(Cc1cc(Cl)cc(N2CCC(Oc3ccccc3)CC2)c1)Nc1cncc2ccccc12` with its measured IC50.
Response: 1.73
